- assay: Relative stability experiments: non-competitive and competitive interconversion of crystal forms of Compound 1
- Format: physicochemical
- settings: non-competitive, single starting form; refluxed in deionized water at about 95° C. for 3 hours
result.type: crystal form of the resulting material (pXRD, DSC, TGA, 1H-NMR)

>  <compound>
COc1ccc(Cl)c(S(=O)(=O)NC(=O)c2cn3cc(C(F)(F)F)cc(Cl)c3n2)c1 [Form TS]

>  <test.value>
Form A

$$$$
>  <compound>
COc1ccc(Cl)c(S(=O)(=O)NC(=O)c2cn3cc(C(F)(F)F)cc(Cl)c3n2)c1 [Form B]

>  <test.value>
Form A

$$$$
>  <compound>
COc1ccc(Cl)c(S(=O)(=O)NC(=O)c2cn3cc(C(F)(F)F)cc(Cl)c3n2)c1 [Form D]

>  <test.value>
Form A

$$$$

###

- assay: Relative stability experiments: non-competitive and competitive interconversion of crystal forms of Compound 1
- Assay type: physicochemical
- settings: Example 12i, competitive: Forms A, B, D and mixed Forms A and B blended; deionized water, about 95° C., 3 hours

>  <compound>
COc1ccc(Cl)c(S(=O)(=O)NC(=O)c2cn3cc(C(F)(F)F)cc(Cl)c3n2)c1 [Form A]

>  <crystal form of the resulting material>
Form A

$$$$
>  <compound>
COc1ccc(Cl)c(S(=O)(=O)NC(=O)c2cn3cc(C(F)(F)F)cc(Cl)c3n2)c1 [Form B]

>  <crystal form of the resulting material>
Form A

$$$$
>  <compound>
COc1ccc(Cl)c(S(=O)(=O)NC(=O)c2cn3cc(C(F)(F)F)cc(Cl)c3n2)c1 [Form D]

>  <crystal form of the resulting material>
Form A

$$$$
>  <compound>
COc1ccc(Cl)c(S(=O)(=O)NC(=O)c2cn3cc(C(F)(F)F)cc(Cl)c3n2)c1 [mixed Forms A and B]

>  <crystal form of the resulting material>
Form A

$$$$
